B1: library; a variant is named by its letters at X, in order (parent)
chain: MNIQIGELAKRTACPVVTIRFYEQEGLLPPPGRSRGNFRLYGEEHVERLQFIRHCRSLDMPLSXVRTLLSYRKRPDQDCGEVXMLLDEHXRQVESRIGALLELXHXLVELREACSGARPAQSCGILQGLSDCVCDTRGTTAHXSD

Variants of: B1
EXPERIMENTAL DETAILS: sfGFP reporter fluorescence (15 h) (µM FITC); higher = stronger transcriptional activation
PARTICULARS: library round: Round 3b; ligand: 1 µM Pb
MEASURE NAME: sfGFP reporter fluorescence

>>> assay_value("DIATHR")
0.0989
>>> assay_value("DIAVHT")
0.102
>>> assay_value("KNATHR")
0.412
>>> assay_value("DFIVAT")
0.0992
>>> assay_value("KFATET")
0.404
>>> assay_value("KIITAT")
0.39
